# assayMethodText: Lipophilicity, log D of the compound at pH 7.3 by HPLC
# Format: physicochemical
# statedConditions: buffer
measuredQuantity: logD

compound="C=C(C)c1ccc(N2CC(CNC(=O)c3ccc(-c4nc5cc(C#N)cc(C(C)C)c5o4)cc3)OC2=O)nc1 (racemic)" recordedresult=5.4
compound="CC(C)c1cc(C#N)cc2nc(-c3ccc(C(=O)NCC4CN(c5ccc(-c6ccccc6OC(F)(F)F)cn5)C(=O)O4)cc3)oc12 (racemic)" recordedresult=6.4
compound="CC(C)c1cc(C#N)cc2nc(-c3ccc(C(=O)NCC4CN(c5ccc(-c6ccccc6C(N)=O)cn5)C(=O)O4)cc3)oc12 (racemic)" recordedresult=4.8
compound="CC(C)Oc1ccc(F)cc1-c1ccc(N2CC(CNC(=O)c3ccc(-c4nc5cc(C#N)cc(C(C)C)c5o4)cc3)OC2=O)nc1 (racemic)" recordedresult=6.6
compound="CC(C)c1cc(C#N)cc2nc(-c3ccc(C(=O)NCC4CN(c5ccc(Cl)cn5)C(=O)O4)cc3)oc12 (racemic)" recordedresult=5.8
compound="Cc1ccc(-c2ccc(N3CC(CNC(=O)c4ccc(-c5nc6cc(C#N)cc(C(C)C)c6o5)cc4)OC3=O)nc2)s1 (racemic)" recordedresult=6.2
compound=CC(C)Oc1ccc(F)cc1-c1ccc(N2CCC(CNC(=O)c3ccc(-c4nc5cc(C#N)cc(C(C)C)c5o4)cc3)CC2)nc1 recordedresult=7.2
compound="Cc1ccc(OC(C)C)c(-c2ccc(N3CC(CNC(=O)c4ccc(-c5nc6cc(C#N)cc(C(C)C)c6o5)cc4)OC3=O)nc2)c1 (racemic)" recordedresult=6.9
compound="CC(C)c1cc(C#N)cc2nc(-c3ccc(C(=O)NCC4CN(c5ccc(-c6ccccc6C#N)cn5)C(=O)O4)cc3)oc12 (racemic)" recordedresult=5.1

* * *

# systemTested: Voltage-gated inwardly rectifying potassium channel KCNH2 (Homo sapiens, UniProt Q12809)
# Sequence (Q12809 whole entry): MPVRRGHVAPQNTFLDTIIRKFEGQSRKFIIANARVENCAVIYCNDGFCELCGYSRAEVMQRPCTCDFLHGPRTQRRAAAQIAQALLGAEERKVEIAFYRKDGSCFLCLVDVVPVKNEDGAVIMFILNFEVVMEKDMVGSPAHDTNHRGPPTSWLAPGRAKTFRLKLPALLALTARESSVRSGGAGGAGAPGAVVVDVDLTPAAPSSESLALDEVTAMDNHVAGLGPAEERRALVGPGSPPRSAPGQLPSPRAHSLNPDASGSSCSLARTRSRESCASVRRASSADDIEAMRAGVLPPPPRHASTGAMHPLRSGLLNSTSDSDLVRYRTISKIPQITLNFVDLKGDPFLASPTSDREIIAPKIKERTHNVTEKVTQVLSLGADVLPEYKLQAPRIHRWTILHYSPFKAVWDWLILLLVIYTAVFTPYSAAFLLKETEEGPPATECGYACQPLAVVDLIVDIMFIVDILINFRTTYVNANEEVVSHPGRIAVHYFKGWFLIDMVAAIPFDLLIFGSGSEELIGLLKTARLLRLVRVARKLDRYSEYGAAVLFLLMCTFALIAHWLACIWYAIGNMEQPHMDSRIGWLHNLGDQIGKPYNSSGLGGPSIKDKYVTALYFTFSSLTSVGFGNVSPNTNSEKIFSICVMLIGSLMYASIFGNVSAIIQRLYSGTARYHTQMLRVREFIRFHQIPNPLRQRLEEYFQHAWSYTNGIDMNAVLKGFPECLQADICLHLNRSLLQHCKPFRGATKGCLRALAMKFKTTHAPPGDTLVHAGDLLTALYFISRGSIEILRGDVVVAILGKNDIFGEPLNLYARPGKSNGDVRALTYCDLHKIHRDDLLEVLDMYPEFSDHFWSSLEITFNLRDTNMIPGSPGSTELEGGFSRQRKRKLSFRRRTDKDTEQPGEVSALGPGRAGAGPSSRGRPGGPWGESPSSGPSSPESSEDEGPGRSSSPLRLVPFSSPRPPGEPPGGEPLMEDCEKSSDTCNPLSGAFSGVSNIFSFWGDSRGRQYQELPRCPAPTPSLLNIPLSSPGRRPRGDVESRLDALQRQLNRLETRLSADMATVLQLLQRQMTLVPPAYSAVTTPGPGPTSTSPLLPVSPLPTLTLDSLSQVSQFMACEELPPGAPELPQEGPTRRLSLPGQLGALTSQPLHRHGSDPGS
# assayMethodText: Displacement of [35S]MK499 from human ERG expressed in HEK cells
Measured IC50 by item
measuredQuantity: IC50

compound="CC(C)c1cc(C#N)cc2nc(-c3ccc(C(=O)NCC4CN(c5ccc(-c6ccccc6C(N)=O)cn5)C(=O)O4)cc3)oc12 (racemic)" systemtested="Voltage-gated inwardly rectifying potassium channel KCNH2 (Homo sapiens, UniProt Q12809)" recordedresult="> 30 µM"
compound="CC(C)c1cc(C#N)cc2nc(-c3ccc(C(=O)NCC4CN(c5ccc(-c6ccccc6OC(F)(F)F)cn5)C(=O)O4)cc3)oc12 (racemic)" systemtested="Voltage-gated inwardly rectifying potassium channel KCNH2 (Homo sapiens, UniProt Q12809)" recordedresult="> 30 µM"
compound="Cc1ccc(-c2ccc(N3CC(CNC(=O)c4ccc(-c5nc6cc(C#N)cc(C(C)C)c6o5)cc4)OC3=O)nc2)s1 (racemic)" systemtested="Voltage-gated inwardly rectifying potassium channel KCNH2 (Homo sapiens, UniProt Q12809)" recordedresult="12.7 µM"
compound=CC(C)Oc1ccc(F)cc1-c1ccc(N2C[C@H](CNC(=O)c3ccc(-c4nc5cc(C#N)cc(C(C)C)c5o4)cc3)OC2=O)nc1 systemtested="Voltage-gated inwardly rectifying potassium channel KCNH2 (Homo sapiens, UniProt Q12809)" recordedresult="> 30 µM"
compound="C=C(C)c1ccc(N2CC(CNC(=O)c3ccc(-c4nc5cc(C#N)cc(C(C)C)c5o4)cc3)OC2=O)nc1 (racemic)" systemtested="Voltage-gated inwardly rectifying potassium channel KCNH2 (Homo sapiens, UniProt Q12809)" recordedresult="> 30 µM"
compound=CC(C)c1cc(C#N)cc2nc(-c3ccc(C(=O)NC[C@H]4CC[C@@H](c5ccc(C(F)(F)F)cc5)CC4)cc3)oc12 systemtested="Voltage-gated inwardly rectifying potassium channel KCNH2 (Homo sapiens, UniProt Q12809)" recordedresult="> 30 µM"
compound="CC(C)c1cc(C#N)cc2nc(-c3ccc(C(=O)NCC4CN(c5ccc(-c6ccccc6C#N)cn5)C(=O)O4)cc3)oc12 (racemic)" systemtested="Voltage-gated inwardly rectifying potassium channel KCNH2 (Homo sapiens, UniProt Q12809)" recordedresult="1.19 µM"

* * *

# systemTested: UniProtKB P11597
# Sequence (P11597 whole entry): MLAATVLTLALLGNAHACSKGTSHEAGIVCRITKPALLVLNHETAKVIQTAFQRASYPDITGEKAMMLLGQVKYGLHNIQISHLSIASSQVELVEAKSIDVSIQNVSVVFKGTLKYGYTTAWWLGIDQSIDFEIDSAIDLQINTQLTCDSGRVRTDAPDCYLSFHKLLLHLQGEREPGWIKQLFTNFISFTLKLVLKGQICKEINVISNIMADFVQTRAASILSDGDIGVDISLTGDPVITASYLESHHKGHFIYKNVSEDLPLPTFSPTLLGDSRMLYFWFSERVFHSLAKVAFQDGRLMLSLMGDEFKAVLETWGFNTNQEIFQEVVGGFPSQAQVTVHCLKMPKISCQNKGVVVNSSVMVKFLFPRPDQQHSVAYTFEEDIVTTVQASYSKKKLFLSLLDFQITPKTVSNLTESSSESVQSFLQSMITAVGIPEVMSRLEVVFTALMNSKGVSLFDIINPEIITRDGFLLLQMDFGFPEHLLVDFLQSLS
pIC50: −log10 of the molar value.
measuredQuantity: pIC50

structuresmiles=CC(C)c1cc(C#N)cc2nc(-c3ccc(C(=O)NC[C@H]4CC[C@@H](c5cccc(C(F)(F)F)c5)CC4)cc3)oc12 measuredquantity=pIC50 recordedresult=7.11
structuresmiles=CC(C)c1cc(C#N)cc2nc(-c3ccc(C(=O)NC[C@H]4CC[C@@H](c5ccc(C(C)(C)C)cc5)CC4)cc3)oc12 measuredquantity=pIC50 recordedresult=7.43
structuresmiles=CC(C)c1cc(C#N)cc2nc(-c3ccc(C(=O)NC[C@H]4CC[C@H](c5ccc(C(C)(C)C)cc5)CC4)cc3)oc12 measuredquantity=pIC50 recordedresult=7.42
structuresmiles=CC(C)Oc1ccc(F)cc1-c1ccc(N2C[C@@H](CNC(=O)c3ccc(-c4nc5cc(C#N)cc(C(C)C)c5o4)cc3)OC2=O)nc1 measuredquantity=pIC50 recordedresult=7.18

# credit: ChEMBL document CHEMBL1770083
